- System: CAKI-1
- ASSAY NOTES: panel of 60 human tumor cell lines, growth inhibition (Renal Cancer)
- CONDITION: CAKI-1; Log10 Concentration −8.0
REPORTED PROPERTY: Percent Growth
Write the figure, then the unit, nothing else.

A selection of reference data follows.
[[record]]
mol = "C=C1C(=O)O[C@H]2[C@H]1CC/C(COC(=O)N1CCN(C)CC1)=C\\CC[C@@]1(C)O[C@@H]21"
reported_property = "Percent Growth"
reported_value = "94%"

[[record]]
mol = "C=C1C(=O)O[C@H]2[C@H]1CC/C(COC(=O)CCC(=O)N1CCC(C)CC1)=C\\CC[C@@]1(C)O[C@@H]21"
reported_property = "Percent Growth"
reported_value = "90%"

[[record]]
mol = "C=C1C(=O)O[C@H]2[C@H]1CC/C(COC(=O)N1CCC(F)(F)CC1)=C\\CC[C@@]1(C)O[C@@H]21"
reported_property = "Percent Growth"
reported_value = "97%"


Next compound, Percent Growth to be filled in.
Exercise: Fill blank: measured Percent Growth of the compound C=C1C(=O)O[C@H]2[C@H]1CC/C(COC(=O)CCC(=O)NCc1ccc(Cl)nc1)=C\CC[C@@]1(C)O[C@@H]21 is ____.
Solution: 93%

----------
We begin with a simple list: items and their reported Percent Growth.
- System: SK-MEL-2
- ASSAY NOTES: panel of 60 human tumor cell lines, growth inhibition (Melanoma)
- CONDITION: SK-MEL-2; Log10 Concentration −6.0
The figure you give is taken to be in %; do not add the unit.

Would you please look over these solved cases?
[[record]]
mol = "C=C1C(=O)O[C@H]2[C@H]1CC/C(COC(=O)NCCN1CCCCC1)=C\\CC[C@@]1(C)O[C@@H]21"
assay_system = "SK-MEL-2"
unit_name = "%"
reported_value = 113

[[record]]
mol = "C=C1C(=O)O[C@H]2[C@H]1CC/C(COC(=O)NCCO)=C\\CC[C@@]1(C)O[C@@H]21"
assay_system = "SK-MEL-2"
unit_name = "%"
reported_value = 115

[[record]]
mol = "C=C1C(=O)O[C@H]2[C@H]1CC/C(COC(=O)CCC(=O)N1CCC(C)CC1)=C\\CC[C@@]1(C)O[C@@H]21"
assay_system = "SK-MEL-2"
unit_name = "%"
reported_value = 108

[[record]]
mol = "C=C1C(=O)O[C@H]2[C@H]1CC/C(COC(=O)N1CCN(C)CC1)=C\\CC[C@@]1(C)O[C@@H]21"
assay_system = "SK-MEL-2"
unit_name = "%"
reported_value = 106


--- query ---
Exercise: Which value of Percent Growth has been reported for C=C1C(=O)O[C@H]2[C@H]1CC/C(COC(=O)N1CCC(F)(F)CC1)=C\CC[C@@]1(C)O[C@@H]21 in the records?
Solution: 98

----------
- Test system: SW-620
Reported values of CC50 for individual entries
Answer format: numeric, µM implied, no suffix.

Here's what some known entries look like.
[[record]]
mol = "C=C1C(=O)O[C@H]2[C@H]1CC/C(COC(=O)NC)=C\\CC[C@@]1(C)O[C@@H]21"
reported_property = "CC50"
reported_value = 44.7

[[record]]
mol = "C=C1C(=O)O[C@H]2[C@H]1CC/C(COC(=O)N1CCN(C)CC1)=C\\CC[C@@]1(C)O[C@@H]21"
reported_property = "CC50"
reported_value = 58.3

[[record]]
mol = "C=C1C(=O)O[C@H]2[C@H]1CC/C(COC(=O)N1CCC(F)(F)CC1)=C\\CC[C@@]1(C)O[C@@H]21"
reported_property = "CC50"
reported_value = 17.9

[[record]]
mol = "C=C1C(=O)O[C@H]2[C@H]1CC/C(COC(=O)NCCN1CCCCC1)=C\\CC[C@@]1(C)O[C@@H]21"
reported_property = "CC50"
reported_value = 50.3

[[record]]
mol = "C=C1C(=O)O[C@H]2[C@H]1CC/C(COC(=O)NCCO)=C\\CC[C@@]1(C)O[C@@H]21"
reported_property = "CC50"
reported_value = 74


Next molecule, CC50 to be filled in.
Exercise: # query: CC50 of entry C=C1C(=O)O[C@H]2[C@H]1CC/C(COC(=O)CCC(=O)N1CCC(C)CC1)=C\CC[C@@]1(C)O[C@@H]21
Solution: 42.6
